assay: NCI Yeast Anticancer Drug Screen. Data for the bub3 strain (AID 167); conditions: S. cerevisiae bub3 mutant strain, at 50.0 µM (retest, dose inferred, filed as 5.0), stronger effect = higher value
The panel holds about 79,000 compounds, 15% with a hit somewhere; the sample as a whole holds those more often.
Property: growth inhibition; scope: individual molecules
Express your answer in %, writing the number without its unit.

These recorded examples may help you get a feel for the data.
                                   molecule  test_value
0                     N#CSc1ccc(O)c2ccccc12          96
1  Cn1c2c(c3ccccc31)CCN(CCN1CCN(c3cccc(Cl)c3)CC1)C2=O         -17
2  CCOC(=O)C1=C(C)NC(=O)NC1c1coc2cc(C)cc(C)c2c1=O (configuration not stated)          -4
3       CS(=O)(=O)C(=Cc1ccccc1Cl)S(C)(=O)=O           6
4                  NCCOB1c2ccccc2Cc2ccccc21          98

INPUT: growth inhibition lookup needed for CC[n+]1c(/C=C/c2ccc(N(C)C)cc2)ccc2ccccc21 , thanks.
OUTPUT: 99

INPUT: growth inhibition lookup needed for CNC1c2ccccc2C(=O)c2cc3c(cc21)OCCOCCOCCOCCO3 (configuration not stated) , thanks.
OUTPUT: -2

INPUT: growth inhibition lookup needed for N#Cc1c([N+](=O)[O-])cc(C(F)(F)F)cc1[N+](=O)[O-] , thanks.
OUTPUT: 100

INPUT: growth inhibition lookup needed for Cc1ccccc1-n1c(N)c(-c2nc3ccccc3[nH]2)sc1=S , thanks.
OUTPUT: 55

###

assay: NCI Yeast Anticancer Drug Screen. Data for the mlh1 rad18 strain (AID 175); conditions: S. cerevisiae mlh1 rad18 strain growth inhibition; at 50.0 µM; stronger effect = higher value
This is part of a sample that, as a whole, favours compounds with a hit. Of some 79,000 tested, about 15% had one in any assay.
Label label 1 when growth inhibition >= 60%; otherwise label 0.

>>> print(df.to_string())
                                   compound  class_assignment
0  CC(CC(C#CCN(C)C)N(C)C)CC(C)(C)C (configuration not stated)           label 0
1  CC(=O)OCC1CC2OC2CC1C (configuration not stated)           label 1
2  Cc1nn(C(=O)c2ccccc2O)c2c1C(c1ccc([N+](=O)[O-])cc1)SC(N)=N2 (configuration not stated)           label 0

INPUT: Say whether COC(=O)/C(=C\c1cn(C(C)=O)c2ccccc12)P(=O)(OC)OC shows growth inhibition of 60% or more.
OUTPUT: label 1

INPUT: Say whether NC(=S)C1CCC(C2CCCCC2)CC1 (configuration not stated) shows growth inhibition of 60% or more.
OUTPUT: label 1

INPUT: Say whether CCCCCc1cc(Cl)cc(Cl)c1O shows growth inhibition of 60% or more.
OUTPUT: label 1

INPUT: Say whether Cc1ccc(N=Nc2ncccc2O)cc1C shows growth inhibition of 60% or more.
OUTPUT: label 1

###

Property: growth inhibition; scope: individual compounds
test: NCI Yeast Anticancer Drug Screen. Data for the bub3 strain (AID 167); conditions: S. cerevisiae bub3 mutant strain, at 5.0 µM (retest, dose inferred, filed as 0.5), stronger effect = higher value
The panel holds about 79,000 compounds, 15% with a hit somewhere; the sample as a whole holds those more often.
Express your answer in %, writing the number without its unit.

These recorded examples may help you get a feel for the data.
compound	result.type	test.value
O=C(OCC1OC(OCC(OC(=O)c2ccccc2)C(OC(=O)c2ccccc2)C(OC(=O)c2ccccc2)c2cnn(-c3ccccc3)n2)C(OC(=O)c2ccccc2)C(OC(=O)c2ccccc2)C1OC(=O)c1ccccc1)c1ccccc1 (centres undefined)	growth inhibition	-12
COc1cccc2c1C(=O)c1c(O)c3c(c(O)c1C2=O)CC(O)(C(C)=O)CC3OC1CC(NCC2(O)OCC(O)C2O)C(O)C(C)O1 (centres undefined)	growth inhibition	34
O=C1C(Br)=C(Br)C(=O)c2ccccc21	growth inhibition	100

Continue with the next compound.
INPUT: growth inhibition lookup needed for O=C(O)COc1c(Cl)c(Cl)c(Cl)c(Cl)c1Cl.[Cu+2] , thanks.
OUTPUT: 9

###

experiment: NCI Yeast Anticancer Drug Screen. Data for the mlh1 rad18 strain (AID 175); settings: S. cerevisiae mlh1 rad18 strain growth inhibition; at 50.0 µM; stronger effect = higher value
About 79,000 compounds went through this panel and 15% of them were active in at least one assay; those are over-represented in the sample as a whole.
Each entry belongs to exactly one class, chosen by where its growth inhibition falls: lowest: < 50%; middle: ≥ 50% and < 90%; highest: ≥ 90%

Solved entries:
                                   compound  class_assignment
0  COc1ccc(-c2nc(C)[nH]c(=O)c2Cc2c(O)ccc3ccccc23)cc1           highest
1  c1ccc2c(c1)N=c1ccccc1=P21c2ccccc2Nc2ccccc21            middle
2              Cc1cc(C)n2nc(N)c(C#N)c2c1C#N            middle
3                   CCOc1ccc2nc(C)cc(C)c2c1            lowest
4  [Pt].c1ccc(P(CCP(CCP(c2ccccc2)c2ccccc2)CCP(c2ccccc2)c2ccccc2)c2ccccc2)cc1            middle
5  Cn1c(=O)c2c(nc([N+](=O)[O-])n2C)n(C)c1=O            middle

INPUT: Please classify: CC(C)CCSc1ncnc2nc[nH]c12
OUTPUT: lowest

INPUT: Please classify: COc1ccc(-c2c(-c3ccccc3)c(C)nc3[nH]c(=S)[nH]c(=S)c23)cc1OC
OUTPUT: highest

INPUT: Please classify: CC(C)=CC1C(COC(=O)CCl)C1(C)C (stereo not drawn)
OUTPUT: lowest

INPUT: Please classify: O=C(CCCl)Nc1ccc(CCC(=O)c2ccccc2NC(=O)CCCl)cc1
OUTPUT: middle

INPUT: Please classify: Cc1ccc(S(=O)(=O)Nc2ccccc2C=O)cc1
OUTPUT: highest

INPUT: Please classify: O=C1C2Nc3ccccc3SC2C(=O)N1c1ccccc1C(F)(F)F (stereo not drawn)
OUTPUT: middle

INPUT: Please classify: S=C(C(=S)N1CCOCC1)N1CCOCC1
OUTPUT: lowest

INPUT: Please classify: CCCCN(CCCC)CC(O)c1cc(-c2ccc(Cl)cc2)nc2c(-c3ccccc3)cccc12 (stereo not drawn)
OUTPUT: middle

###

test: NCI Yeast Anticancer Drug Screen. Data for the cln2 rad14 strain (AID 165);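 note: 0% = growth equal to vehicle treated cultures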; conditions: S. cerevisiae cln2 rad14 strain, at 50.0 µM, stronger effect = higher value
Compounds without any hit were thinned out: in the full panel of roughly 79,000, 15% have a hit. The source made the active and inactive calls. No stated cut-off is given here; in the data, active means growth inhibition above about 70%; inactive means the rest.
Property: growth inhibition; scope: individual compounds

                                   compound        test_value
0  COC1OC(CO)C(O)C(OC(=O)c2ccc([N+](=O)[O-])cc2)C1OS(=O)(=O)c1ccc(C)cc1 (stereo not given)  -2.5% (inactive)
1                           CC(C)(C)CC(=O)O  27.1% (inactive)
2  CCCCc1c2c(nc3c1CC/C(=C\c1ccccc1)C3=O)CCCC2    38% (inactive)
3   COc1ccc(CN2COc3c(cc(Cl)c4cccnc34)C2)cc1    99.2% (active)

Continue with the next compound.
INPUT: growth inhibition lookup needed for COc1cc[c]([Sn]([c]2ccc(OC)cc2)([c]2ccc(OC)cc2)[c]2ccc(OC)cc2)cc1 , thanks.
OUTPUT: 85.8% (active)

###

assay: NCI Yeast Anticancer Drug Screen. Data for the bub3 strain (AID 167); conditions: S. cerevisiae bub3 mutant strain, at 5.0 µM (retest, dose inferred, filed as 0.5)
This is part of a sample that, as a whole, favours compounds with a hit. Of some 79,000 tested, about 15% had one in any assay. Activity calls are given as the source filed them. Cut-off read from the data, not from the text of the source: active = growth inhibition above about 70%; inactive = the rest.
In this exercise, the only acceptable responses are active, inactive

Solved entries:
>>> print(df.to_string())
                                   molecule  class_assignment
0  Cc1cccc2c1CC1(C2)Cc2c(C)cccc2C1=O (configuration not stated)          inactive
1  CCC1CCC2=C(C1)C(=O)c1ccccc1C2=O (configuration not stated)          inactive
2         Cc1ccc(NC(=S)SCc2ccc(Cl)cc2)cc1Cl          inactive
3        O=C1C=CC(=O)N1C12CC3CC(CC(C3)C1)C2            active
4  CCCCCC(O)C(C)CO (configuration not stated)          inactive

INPUT: // param item: COc1ccc(CSC(=S)Nc2ccc(SC)c(Cl)c2)cc1 ; yields the recorded call
OUTPUT: inactive

INPUT: // param item: COc1cc(-c2ccc(-[n+]3nc(Cc4ccc5c(c4)OCO5)nn3-c3ccccc3)c(OC)c2)ccc1-[n+]1nc(Cc2ccc3c(c2)OCO3)nn1-c1ccccc1 ; yields the recorded call
OUTPUT: inactive
